Provide the reported inhibition at 10 µM of each item.
# Test system: RBL-2H3, a rat basophilic leukemia cell to express hematopoietic prostaglandin D synthase
# measurement.description: Prostaglandin D2 production inhibition test using cells (A23187-induced, EIA)
# Type: cell-based
# particulars: Rattus norvegicus, RBL-2H3, Drug Concentration 10 μM; RBL-2H3 cells, A23187 2.5 μM; read-out: Inhibitory Ratio of Prostaglandin D2 (PGD2) Production (%)
# Description: RBL-2H3, a rat basophilic leukemia cell to express hematopoietic prostaglandin D synthase, was inoculated in a 24 well plate and incubated overnight. […] The supernatant of the cells was collected, and the amount of PGD2 flowed out in the supernatant was measured by EIA kit by Cayman. The inhibitory ratio of the production of PGD2 by the test compound was calculated assuming the amount of PGD2 produced by A23187 in the absence of the test compound as being 100%.

Query :: // inhibition at 10 µM lookup, key: Cc1nn(-c2ccccc2)c(O)c1/C=N/n1c(C(C)(C)C)nc2ccccc2c1=O [Compound 25]
Result :: 47%

Query :: Also check Cc1nn(-c2ccc(Cl)cc2)c(O)c1C=Nn1c(C)nc2ccccc2c1=O [Compound 17]
Result :: 21%

Query :: Similarly, Cc1nn(-c2ccccc2)c(O)c1/C=N/n1c(C)nc2ccccc2c1=O [Compound 1] ?
Result :: 26%

Query :: And what about the compound Cc1nn(-c2ccc([N+](=O)[O-])cc2)c(O)c1C=Nn1c(C)nc2ccccc2c1=O [Compound 20] ?
Result :: 15%
